- Tested on: K-562
- experiment.notes: cell viability (% survival relative to DMSO control, bortezomib = 0%); higher = less cytotoxic
- cond: 10 nM; 72 h
readout.name: cell viability (%)
Give just the number in %; leave the unit off.

Any idea what its cell viability is? The molecule is C=C(C=NNC(=N)N)NNC(=N)N [Mitoguazone]
105

Any idea what its cell viability is? The molecule is CC(C)c1onc(-c2c(Cl)cccc2Cl)c1COc1ccc(/C=C/c2cccc(C(=O)O)c2)c(Cl)c1 [GW4064]
107

Any idea what its cell viability is? The molecule is O=C(O)C1=CC(=C(c2ccc(O)c(C(=O)O)c2)c2ccc(O)c(C(=O)O)c2)C=CC1=O [Aurintricarboxylic acid]
104

Any idea what its cell viability is? The molecule is C[C@H](NC(=O)c1sccc1OCc1ccc(Cl)cc1)c1ccccc1
93.3

====

Exercise: state measured cell viability for each of the molecules provided.
- Test system: KG-1
- experiment.notes: cell viability (% survival relative to DMSO control, bortezomib = 0%); higher = less cytotoxic
- cond: 1000 nM; 72 h
Give just the number in %; leave the unit off.

Any idea what its cell viability is? The molecule is COc1ccc(CNC(=O)Nc2ncc([N+](=O)[O-])s2)cc1
94.8

Any idea what its cell viability is? The molecule is O[C@H]1[C@H]2[C@H](O)CCCN2C[C@H]1O [Swainsonine]
87.9

Any idea what its cell viability is? The molecule is Nc1ccccc1C(=O)C[C@H](N)C(=O)O [L-Kynurenine]
102

Any idea what its cell viability is? The molecule is O=C1c2cc([N+](=O)[O-])ccc2-n2c1nc1ccccc1c2=O [GNF-Pf-3777]
67.1

Any idea what its cell viability is? The molecule is NC(=O)c1cccc(-c2cccc(OC(=O)NC3CCCCC3)c2)c1 [URB-597]
92.8

====

Exercise: state measured IC50 (cell viability) for each of the molecules provided.
- System: BV-173
- cond: 72 h
Structures can show the parent of a compound that is named as a salt.

Any idea what its IC50 (cell viability) is? The molecule is N/C(=N\CCCC(N)C(=O)O)N[N+](=O)[O-] [L-NNA]
> 10 µM

Any idea what its IC50 (cell viability) is? The molecule is O=c1cc(-c2ccccc2)oc2cc(O)c(O)c(O)c12 [Baicalein]
> 10 µM

Any idea what its IC50 (cell viability) is? The molecule is Cc1cc(CS(=O)(=O)c2ccccc2)cc(OCc2ccc(CN3CCC[C@@H]3CO)cc2)c1 [PF-543 hydrochloride]
8.45 µM

Any idea what its IC50 (cell viability) is? The molecule is CCCCN1C[C@H](O)[C@@H](O)[C@H](O)[C@H]1CO [Miglustat]
> 10 µM

Any idea what its IC50 (cell viability) is? The molecule is O=C(O)CCCCC(CCSCc1ccccc1)SCc1ccccc1 (stereo not given) [CPI-613]
> 10 µM

====

- System: HL-60
- experiment.notes: cell viability (% survival relative to DMSO control); higher = less cytotoxic
- cond: 0.01 µM; 72 h; co-treatment: AZD3965 100 nM
Exercise: state measured cell viability for each of the compounds provided.
Give just the number in %; leave the unit off.

Any idea what its cell viability is? The compound is C=C(C=NNC(=N)N)NNC(=N)N
102

Any idea what its cell viability is? The compound is Nc1ccccc1C(=O)C[C@H](N)C(=O)O
77.9

Any idea what its cell viability is? The compound is Cc1cn([C@H]2C[C@H](O)[C@@H](COP(=O)(O)OP(=O)(O)O)O2)c(=O)[nH]c1=O [Thymidine diphosphate]
97.9

Any idea what its cell viability is? The compound is O=c1oc2c(O)c(O)cc3c(=O)oc4c(O)c(O)cc1c4c23
96.4

Any idea what its cell viability is? The compound is COc1ccc(CNC(=O)Nc2ncc([N+](=O)[O-])s2)cc1
97.6

Any idea what its cell viability is? The compound is O=c1cc(-c2ccccc2)oc2cc(O)c(O)c(O)c12
100

Any idea what its cell viability is? The compound is NC(=O)c1cccc(-c2cccc(OC(=O)NC3CCCCC3)c2)c1
105

Any idea what its cell viability is? The compound is CC(C)c1cc2c(c(O)c1O)[C@@]1(C(=O)O)CCCC(C)(C)[C@@H]1CC2
101

Any idea what its cell viability is? The compound is Cc1coc2c1C(=O)C(=O)c1c-2ccc2c1CCCC2(C)C
106
